# Target Entity: TC2N
# Test Description: pooled miR-30 sensor sort-seq; sequence = guide strand; further: reference of the scale not given here
# Condition Label: shRNA
# sensor-assay potency score (higher = more potent) per entry
Property Name: sensor-assay potency score (higher = more potent)

>>> print(df.to_string())
         primary_sequence  recorded_number
0  TAAAACTGTGATCCAGATCTGT          -0.0159
1  TTTCTTCTTACAGAGCTTCGAC           -0.277
2  TTTAATAGCAAATACAAACGTT            -0.37
3  TTGAAGAAGAACTACTGGGTAC           -0.298
4  TTACTGTCTGTGTCTCTTGTTG            -0.31
5  TTAATAGCAAATACAAACGTTT           -0.542
6  TGAACTGGAAAGTTCTACCTTT            0.507
7  TAGCATTTTGACTATTTGGGAC           -0.206

* * *

# Target Entity: SPOPL
# Test Description: pooled miR-30 sensor sort-seq; sequence = guide strand
# Condition Label: shRNA
Property Name: sensor-assay potency score (higher = more potent)

In [3]: df
Out[3]:
         primary_sequence  recorded_number
0  TCGCACATGACCTTCAGCCGTT            -0.42
1  TGTCGAAGTACACTGCACCTAT          -0.0442
2  TTCTTCGCACATGACCTTCAGC           -0.607
3  TAAAAACTGGAGATCGAGCTGC            0.265
4  TTTACTACTTTAACCTGTGTGT         -0.00218
5  TACTACTTTAACCTGTGTGTAA           -0.323
6  TTTTGCTCGAACTTCACTTTTG            -1.29
7  TTAACCTGTGTGTAACACCAGC           -0.559

* * *

# Target Entity: TMEM90B
# Test Description: pooled miR-30 sensor sort-seq; sequence = guide strand
# Condition Label: shRNA
Property Name: sensor-assay potency score (higher = more potent)

In [3]: df
Out[3]:
         primary_sequence  recorded_number
0  TCGATGAAGGTGGTCTCGCAGC            -1.08
1  TTGAGTAGTCGCTCTCCAGCTC          -0.0875
2  TGTGTCGCTTGAGTAGTCGCTC            0.302
3  TATTTCTCAGCATTCATCTGGT            0.677
4  TCACTCTCTGTGTCGCTTGAGT            -1.01
5  TTTCTCAGCATTCATCTGGTAA            -0.53
6  ATCATTTGTACTGTACAGCATC            -1.17

* * *

# sensor-assay potency score (higher = more potent) per entry
# Target Entity: ACAP2
# Test Description: pooled miR-30 sensor sort-seq; sequence = guide strand
# Condition Label: shRNA
Property Name: sensor-assay potency score (higher = more potent)

In [3]: df
Out[3]:
         primary_sequence  recorded_number
0  TAATCTGAAGCACATAATCGAG            -1.42
1  TAAATCTAGACTGAACTTCTGT            0.683
2  TTTAGGATTTCTGATCTCCTTT           -0.154
3  TAACTTAGAATCATCACTGGAG            0.563
4  TATCCTTCCATAACTATGCCAT          -0.0646
5  TTTAGCTGTATACATTAGGGGG             -0.7

* * *

# Target Entity: NTRK3
# Test Description: pooled miR-30 sensor sort-seq; sequence = guide strand
# Condition Label: shRNA
# sensor-assay potency score (higher = more potent) per entry
Property Name: sensor-assay potency score (higher = more potent)

>>> print(df.to_string())
         primary_sequence  recorded_number
0  TTCATTCCAAATTTGGACCGTC            0.838
1  TAGACAGTGAGGGCAACACTGG            -1.18
2  TAGAGCTCCATGTCCACGGCGT          0.00985
3  TTGTGGGTCACAGTGATAGGAG           -0.852
4  TTCACTAGCAGATTCGCTCCAA            0.574
5  TCTCTGTAGTGAACTTCCGGTA           -0.729

* * *

# Target Entity: EMD
# Test Description: pooled miR-30 sensor sort-seq; sequence = guide strand
# Condition Label: shRNA
Please note: Fulfilled applies when sensor-assay potency score (higher = more potent) is -0.3 or greater, and Not fulfilled applies otherwise.

          primary_sequence  target_entity  class_assignment
 0  TCGTACTCGAAGATCTTCTTCT            EMD         Fulfilled
 1  ATCGTCATCATGCACCTGGTGA            EMD     Not fulfilled
 2  TACATATCTGCATCCCCTCTAG            EMD     Not fulfilled
 3  TAGTAGTCGTCATTGTAGCCCT            EMD         Fulfilled
 4  AAGAAGACAAAAGATCGTCATC            EMD     Not fulfilled
 5  TAGGATAATAGGACAGGTCCAG            EMD     Not fulfilled
 6  TACTCGAAGATCTTCTTCTCGT            EMD         Fulfilled
 7  AAGATCGTCATCATGCACCTGG            EMD         Fulfilled
 8  TAAAGCGTCCTCTTTCTTGGGA            EMD         Fulfilled
 9  AATGAAGTCACTGACTGGCGGA            EMD     Not fulfilled
10  TAGTGCGTGATGCTCTGGTAGG            EMD     Not fulfilled

* * *

# Target Entity: ZNF674
# Test Description: pooled miR-30 sensor sort-seq; sequence = guide strand
# Condition Label: shRNA
Please note: true applies when sensor-assay potency score (higher = more potent) is -0.6 or greater, and false applies otherwise.

         primary_sequence  target_entity  class_assignment
0  TACATTCTTGACCACTTTCATC         ZNF674             false
1  TACAGAAACAAAGTCTGTGTTG         ZNF674              true
2  TTCTTGACCACTTTCATCCTTC         ZNF674              true
3  TTTACAGAAACAAAGTCTGTGT         ZNF674              true
4  TTGATGAGAGTTGACTTCCTAC         ZNF674              true
5  TTCTACATATTTTACATTCTTG         ZNF674             false

* * *

# Target Entity: SACS
# Test Description: pooled miR-30 sensor sort-seq; sequence = guide strand
# Condition Label: shRNA
# sensor-assay potency score (higher = more potent) per entry
Property Name: sensor-assay potency score (higher = more potent)

In [3]: df
Out[3]:
         primary_sequence  recorded_number
0  TTTCACAATAACATGTCTCATG           -0.427
1  TTCATAAACAAGTCTTTGCGGG           -0.207
2  TTTTAGATTAGTCTGCTGCAGA           -0.586
3  TAGAGTATCAACAACAATGTCA            0.305
4  ATAACTTTGCAACTCGTCCTTC            0.248
5  TTTTCTGTGACAACTCATCTGA             0.17
6  TTGACTTTACCAATCTACCATC            -1.12

* * *

# Target Entity: ZNF550
# Test Description: pooled miR-30 sensor sort-seq; sequence = guide strand
# Condition Label: shRNA
Please note: Criterion met applies when sensor-assay potency score (higher = more potent) is -0.6 or greater, and Criterion not met applies otherwise.

In [3]: df
Out[3]:
         primary_sequence  target_entity   class_assignment
0  TTCATGGAGAACATCTGCTGAT         ZNF550      Criterion met
1  TTGAGGTTGAAGATTCCAGAGT         ZNF550  Criterion not met
2  TTTCATTCCAGTGTGAACCCTC         ZNF550      Criterion met
3  TTGTGGAGGTCTGTCTCCGGTG         ZNF550  Criterion not met
4  ATTCATGGAGAACATCTGCTGA         ZNF550      Criterion met
5  TTTACCTTTCTGCATTTCCAAA         ZNF550  Criterion not met
6  TGCTGTATGAGTTCTGAGCTGC         ZNF550      Criterion met
7  TTCGACATTGACTACACTCATA         ZNF550  Criterion not met
